Quick reference for IC50 among some compounds
target: Recombinant human HSD17B13 (Homo sapiens (Human)); experiment: HSD17B13 rapid-fire mass spectrometry assay (RF/MS assay); settings: inhibition of HSD17B13; LTB4 10 μM, NAD+ 0.5 mM, RT 3 h; IC50 ranges A-E

Consider the reported IC50 for these compounds:
>  <query_smiles>
COc1cc(C(=O)O)c(F)cc1NS(=O)(=O)c1csc(-c2ccc(C3=CCC(C)(C)CC3)cc2OC(F)(F)F)n1

>  <endpoint_name>
IC50

>  <recorded_measurement>
< 100 nM

$$$$
>  <query_smiles>
CC(C)(C)c1ccc(S(=O)(=O)NC(=O)OCc2ccc(NS(=O)(=O)c3cnc(-c4ccc(F)cc4)s3)cc2)cc1

>  <endpoint_name>
IC50

>  <recorded_measurement>
1000 to 100000 nM

$$$$

Data request: // lookup IC50 for COc1cc(C(=O)O)c(F)cc1NS(=O)(=O)c1coc(-c2ccc(C3CCC(C)(C)CC3)cc2C(F)(F)F)n1
Data returned: < 100 nM

Data request: What does the data say about its IC50? Entry: COc1cc(C(=O)O)c(F)cc1NS(=O)(=O)c1csc(C#Cc2cccc(C)c2)n1
Data returned: < 100 nM

Data request: Quick check: IC50 of COc1cc(C(=O)O)ccc1NS(=O)(=O)c1csc(-c2ccc(-c3ccccc3)nc2)n1 ?
Data returned: 1000 to 100000 nM

Data request: # IC50 lookup, item COc1cc(C(=O)O)c(F)cc1NS(=O)(=O)c1csc(-c2ccc(C3=CCC(C)(C)CC3)c(OC(C)C)c2F)n1
Data returned: 100 to 500 nM

Data request: I am curious: what IC50 value has been reported for COc1cc(C(=O)O)c(F)cc1NS(=O)(=O)c1csc(-c2ccc([C@H]3CC[C@H](C(C)C)CC3)c(C)c2F)n1 ?
Data returned: < 100 nM

----------
Examples of compounds with documented IC50 follow.
molecular target: Recombinant human HSD17B13 (Homo sapiens (Human), UniProt Q7Z5P4); assay: HSD17B13 rapid-fire mass spectrometry assay (RF/MS assay); conditions: inhibition of HSD17B13; LTB4 10 μM, NAD+ 0.5 mM, RT 3 h; IC50 ranges A-E
Sequence (Q7Z5P4 20-300): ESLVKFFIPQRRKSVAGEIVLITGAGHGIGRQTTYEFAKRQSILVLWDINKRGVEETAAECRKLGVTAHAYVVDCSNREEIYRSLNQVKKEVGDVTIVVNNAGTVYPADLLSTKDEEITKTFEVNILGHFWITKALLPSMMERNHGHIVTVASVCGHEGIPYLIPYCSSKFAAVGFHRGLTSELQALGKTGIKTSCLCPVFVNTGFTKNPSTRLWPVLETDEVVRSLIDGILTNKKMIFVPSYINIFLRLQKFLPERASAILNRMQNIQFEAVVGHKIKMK

>  <compound>
COc1cc(C(=O)O)ccc1NS(=O)(=O)c1csc(-c2ccc(C(F)(F)F)cc2)n1

>  <recorded_measurement>
100 to 500 nM

$$$$
>  <compound>
COc1cc(C(=O)O)ccc1NS(=O)(=O)c1csc(-c2ccc(C3CCC3)cc2)n1

>  <recorded_measurement>
< 100 nM

$$$$
>  <compound>
COc1cc(C(=O)O)c(F)cc1NS(=O)(=O)c1csc(-c2ccc(C3CCC(C(F)(F)F)CC3)c(OC(C)C)c2F)n1 (stereo not drawn) [Example 812]

>  <recorded_measurement>
< 100 nM

$$$$
>  <compound>
COc1cc(C(=O)O)c(F)cc1NS(=O)(=O)c1csc(-c2ccc(CC3CCCCC3)cc2)n1

>  <recorded_measurement>
100 to 500 nM

$$$$

Data request: What does the data say about its IC50? Entry: COc1cc(C(=O)O)ccc1N(C)S(=O)(=O)c1cnc(-c2ccc(F)cc2)s1
Data returned: 1000 to 100000 nM

Data request: What does the record list as IC50 for COc1cc(C(=O)O)ccc1NS(=O)(=O)N1Cc2nc(C3CCC(c4ccccc4)CC3)sc2C1 (stereo not drawn) ?
Data returned: < 100 nM

Data request: Data request, read-out IC50, for COc1cc(C(=O)O)c(F)cc1NS(=O)(=O)c1cnc(-c2ccc(-c3ccc(C45CC6C[C@H](C4)C[C@H](C6)C5)cc3)cc2)s1
Data returned: 100 to 500 nM

Data request: What measured IC50 goes with COc1cc(-c2nnn[nH]2)ccc1NS(=O)(=O)c1cnc(-c2ccc(F)cc2)s1 ?
Data returned: 1000 to 100000 nM

Data request: Value lookup for IC50; key = COc1cc(C(=O)O)ccc1NS(=O)(=O)c1csc(-c2cccc3cnn(C)c23)n1
Data returned: 500 to 1000 nM

Data request: Given the compound COc1cc(C(=O)O)c(F)cc1NS(=O)(=O)c1ccc2sc(-c3ccc([C@H]4CC[C@H](C(F)(F)F)CC4)cc3)nc2c1 , what is its reported IC50?
Data returned: 100 to 500 nM

Data request: Would you mind telling me what IC50 value was observed for COc1cc(C(=O)O)c(F)cc1NS(=O)(=O)c1csc(-c2ccc(C3CCC(C)(C)CC3)cn2)n1 ?
Data returned: 100 to 500 nM

Data request: What measured IC50 goes with COc1cc(C(=O)O)c(F)cc1NS(=O)(=O)c1ccc2sc(-c3ccc(C4CCCC4)cc3)nc2c1 ?
Data returned: 100 to 500 nM

Data request: Would you mind telling me what IC50 value was observed for COc1cc(C(=O)O)ccc1NS(=O)(=O)N1Cc2cccc(-c3ccc(C4CCCCC4)cc3)c2C1 ?
Data returned: 1000 to 100000 nM

Data request: // lookup IC50 for COc1cc(C(=O)O)ccc1NS(=O)(=O)c1cccc(C#Cc2cccc(OC(F)(F)F)c2)n1
Data returned: 100 to 500 nM

Data request: Name the reported IC50 value associated with the compound COc1cc(C(=O)O)ccc1NS(=O)(=O)c1csc(C#Cc2cccnc2)n1
Data returned: 100 to 500 nM

----------
target: Recombinant human HSD17B13 (Homo sapiens (Human)); experiment: HSD17B13 rapid-fire mass spectrometry assay (RF/MS assay); format: biochemical; conditions: inhibition of HSD17B13; LTB4 10 μM, NAD+ 0.5 mM, RT 3 h; IC50 ranges A-E
pIC50: −log10 of the molar value.
endpoint_name: pIC50

See these solved cases before continuing.
>  <compound>
COc1cc(C(=O)O)c(NS(C)(=O)=O)cc1NS(=O)(=O)c1csc(-c2ccc(C3CCC(C)(C)CC3)cc2C(F)(F)F)n1 [Example 701]

>  <recorded_measurement>
4.00 to 6.00

$$$$
>  <compound>
COc1cc(C(=O)O)ccc1NS(=O)(=O)c1csc(N2CC(c3ccccc3)C2)n1 [Example 267]

>  <recorded_measurement>
4.00 to 6.00

$$$$
>  <compound>
O=C(O)c1ccc(NS(=O)(=O)c2cnc(-c3ccc(F)cc3)s2)c(OC(F)F)c1 [Example 49]

>  <recorded_measurement>
4.00 to 6.00

$$$$

Now let's try a different one.
Data request: Provide the documented pIC50 with Recombinant human HSD17B13 (Homo sapiens (Human)) as the system for COc1cc(C(=O)O)ccc1NS(=O)(=O)c1csc(-c2cccc(C3CCCCC3)c2)n1 [Example 366]
Data returned: 6.30 to 7.00

----------
target: Recombinant human HSD17B13 (Homo sapiens (Human), UniProt Q7Z5P4); test: HSD17B13 rapid-fire mass spectrometry assay (RF/MS assay); details: inhibition of HSD17B13; LTB4 10 μM, NAD+ 0.5 mM, RT 3 h; IC50 ranges A-E
pIC50: −log10 of the molar value.
endpoint_name: pIC50

Data request: For the compound O=C(O)Cc1ccc(NS(=O)(=O)c2cnc(-c3ccc(F)cc3)s2)cc1 , what pIC50 is on record?
Data returned: 4.00 to 6.00

Data request: Entry COc1cc(C(=O)O)c(F)cc1NS(=O)(=O)c1csc(-c2ccc(-c3ccc(C4(C(F)(F)F)CC4)cc3)cc2C(F)(F)F)n1 : reported pIC50 = ?
Data returned: > 7.00

Data request: Request the reported pIC50 associated with COc1cc(C(=O)O)ccc1NS(=O)(=O)c1csc(-c2ccc(C34CC5CC(CC(C5)C3)C4)cc2)n1
Data returned: 6.30 to 7.00

Data request: Can you share its pIC50? I mean this compound: COc1cc(C(=O)O)ccc1NS(=O)(=O)c1csc(-c2ccn(C)n2)n1
Data returned: 4.00 to 6.00

----------
Target: Recombinant human HSD17B13 (Homo sapiens (Human))
Experiment: HSD17B13 rapid-fire mass spectrometry assay (RF/MS assay)
Conditions: inhibition of HSD17B13; LTB4 10 μM, NAD+ 0.5 mM, RT 3 h; IC50 ranges A-E
Method: HSD17B13 rapid-fire mass spectrometry assay (RF/MS assay). Recombinant human HSD17B13 was expressed and purified from sf9 cells at Charles River Labs (Saffron Walden, UK). […] Leukotriene B4 (335.3) and 12-oxoLeukotriene B4 (333.3) SRM transitions were optimized with Discovery Quant software and extracted ion counts for these analytes were determined. […] By using above method, the inhibition of HSD17B13 was evaluated for the compounds of Formula (I). […]
endpoint_name: IC50

Before answering, review these 3 worked examples.
>  <molecule>
COc1cc(C(=O)O)ccc1NS(=O)(=O)c1ccc(C2CCC(c3ccccc3)CC2)cc1F (stereo not shown) [Example 357]

>  <recorded_measurement>
100 to 500 nM

$$$$
>  <molecule>
COc1cc(C(=O)O)ccc1NS(=O)(=O)c1coc(-c2ccccc2)n1 [Example 375]

>  <recorded_measurement>
< 100 nM

$$$$
>  <molecule>
COc1cc(C(=O)O)ccc1NS(=O)(=O)c1csc(-c2ccccn2)n1 [Example 147]

>  <recorded_measurement>
1000 to 100000 nM

$$$$

Next, consider the following molecule.
Data request: Recall the recorded IC50 for COc1cc(C(=O)O)c(F)cc1NS(=O)(=O)c1csc(-c2ccc(C3=CCC(C)(C)CC3)cc2C2CC2)n1 [Example 544] with Recombinant human HSD17B13 (Homo sapiens (Human)) and state it.
Data returned: 100 to 500 nM

Measured values drawn from patent US12384753B2 for this set.
